Test system: IGROV1 ovarian
Experiment: NCI tumour cell line growth inhibition, 48 h
parameter measured: TGI

Past entries and their recorded results:
- molecule: "CC1(OCc2ccccc2)C(=O)N2C1N(C(=O)OCc1ccccc1)CC2(C)C (stereo unspecified)"
  data value: "> 100 µM"
- molecule: "c1ccc(C2(c3ccccc3)S/C(=C3/SC(c4ccccc4)(c4ccccc4)c4ccccc43)c3ccccc32)cc1"
  data value: "> 100 µM"
- molecule: "CCOc1ccc(NC(=O)/C(Cc2nc3ccccc3[nH]c2=O)=N\\O)cc1"
  data value: "> 100 µM"

// batch mode: one TGI value per listed entry
1. Nc1nc(=O)c2[nH]cnc2n1O
2. COc1ccccc1CN=C1NC(=O)/C(=C/c2ccc3ncccc3c2)S1
3. CC(=O)NC1C(O)C(O)C(CO)OC1n1nc(SCc2ccccc2)c(=O)[nH]c1=O (stereo unspecified)

Completion:
1: > 100 µM; 2: > 19.4 µM; 3: > 100 µM

meta.source: PubChem BioAssay (NCI)
